assay: activity coefficient (dimensionless); of the first substance listed, at infinite dilution; xn = mol fraction of the nth substance listed; conditions: 333.38 K; 101 kPa; Liquid; Chromatography; x1 = 0
Quick reference: activity coefficient of the listed items.
REPORTED_ENDPOINT: activity coefficient

> print(dat)
                                   compound  assay.result
1  CC(C)O [propan-2-ol] + CCCCCCCCCCCC(=O)O          1.37
2  COc1ccccc1 [anisole] + CCCCCCCCCCCCCC(=O)O          1.27
3  CCOC(C)=O [ethyl acetate] + CCCCCCCCCCCC(=O)O          1.28

====

assay: activity coefficient (dimensionless); of the first substance listed, at infinite dilution; xn = mol fraction of the nth substance listed; settings: 353.3 K; 101 kPa; Liquid; Chromatography; x1 = 0
REPORTED_ENDPOINT: activity coefficient

> print(dat)
                                    molecule  assay.result
 1    CCCO [propan-1-ol] + CCCCCCCCCCCC(=O)O          1.43
 2         CCCCCC [hexane] + CCCCCCCCCC(=O)O          1.65
 3         CO [methanol] + CCCCCCCCCCCC(=O)O          1.58
 4  CC(C)CC(C)(C)C [2,2,4-trimethylpentane] + CCCCCCCCCCCC(=O)O          1.69
 5  CCC(C)O (stereo unspecified) [butan-2-ol] + CCCCCCCCCCCCCC(=O)O          1.04
 6  CCCO [propan-1-ol] + CCCCCCCCCCCCCC(=O)O          1.37
 7    CCCCO [butan-1-ol] + CCCCCCCCCCCC(=O)O          1.36
 8     C=CCCCC [hex-1-ene] + CCCCCCCCCC(=O)O          1.43
 9  CC(C)O [propan-2-ol] + CCCCCCCCCCCC(=O)O          1.24
10  ClC=C(Cl)Cl [trichloroethene] + CCCCCCCCCCCCCC(=O)O         0.824
11  CCC(C)O (stereo unspecified) [butan-2-ol] + CCCCCCCCCCCC(=O)O          1.08

====

Below, each entry is listed with its recorded activity coefficient.
assay: activity coefficient (dimensionless); of the first substance listed, at infinite dilution; xn = mol fraction of the nth substance listed; conditions: 314.24 K; 101 kPa; Liquid; Chromatography; x1 = 0
REPORTED_ENDPOINT: activity coefficient

> print(dat)
                                    compound  assay.result
 1  CCOC(C)=O [ethyl acetate] + CCCCCCCCCCCCCC(=O)O          1.21
 2  CC(C)CC(C)(C)C [2,2,4-trimethylpentane] + CCCCCCCCCCCC(=O)O          1.77
 3    CC(C)O [propan-2-ol] + CCCCCCCCCC(=O)O          1.58
 4  ClCCCl [1,2-dichloroethane] + CCCCCCCCCCCC(=O)O          1.37
 5    CCCO [propan-1-ol] + CCCCCCCCCCCC(=O)O          1.78
 6  ClC(Cl)Cl [trichloromethane] + CCCCCCCCCC(=O)O         0.846
 7  CCC(C)O (centres undefined) [butan-2-ol] + CCCCCCCCCC(=O)O          1.35
 8  Clc1ccccc1 [chlorobenzene] + CCCCCCCCCCCCCC(=O)O         0.998
 9  C=CCCCC [hex-1-ene] + CCCCCCCCCCCCCC(=O)O          1.24
10  ClCCCl [1,2-dichloroethane] + CCCCCCCCCCCCCC(=O)O          1.24
11  CC(C)O [propan-2-ol] + CCCCCCCCCCCCCC(=O)O          1.42
12     C=CCCCC [hex-1-ene] + CCCCCCCCCC(=O)O          1.56
13       CCCCCC [hexane] + CCCCCCCCCCCC(=O)O          1.57
14  ClC=C(Cl)Cl [trichloroethene] + CCCCCCCCCCCCCC(=O)O         0.843
15      CCCO [propan-1-ol] + CCCCCCCCCC(=O)O          1.92
16           CO [methanol] + CCCCCCCCCC(=O)O          2.14
17  C1CCCCC1 [cyclohexane] + CCCCCCCCCCCC(=O)O          1.28
18  C1CCCCC1 [cyclohexane] + CCCCCCCCCC(=O)O          1.46
19         CCCCCC [hexane] + CCCCCCCCCC(=O)O          1.77
20  CCCCO [butan-1-ol] + CCCCCCCCCCCCCC(=O)O          1.54
21  CCC(C)O (centres undefined) [butan-2-ol] + CCCCCCCCCCCC(=O)O           1.3
22  CC(C)O [propan-2-ol] + CCCCCCCCCCCC(=O)O          1.53
23  CCc1ccccc1 [ethylbenzene] + CCCCCCCCCCCC(=O)O          1.22
24  ClC(Cl)Cl [trichloromethane] + CCCCCCCCCCCC(=O)O          0.81

Source of measurements: the NIST ThermoML archive (doi:10.1016/j.jct.2012.06.009)
